system: BDF1 mice, P388 leukemia ip, median survival T/C; assay: NCI In Vivo Anticancer Drug Screen. Data for tumor model P388 Leukemia (intraperitoneal) in B6D2F1 (BDF1) mice; settings: endpoint: median survival time; dose: 200.0 mg/kg/injection; schedule: Q01DX009 (ip); vehicle: saline with Tween-80; higher = longer survival
Toxic doses and inconclusive results are not listed.
measure name: T/C

compound=O=C(/C=C/c1ccc(OCc2ccccc2)cc1)c1ccccc1F value_measured="96 % of control"
compound=CCOc1ccc(N2C(=O)CSC2=S)cc1 value_measured="95 % of control"
compound="O=C(/C=C/c1cccc(Br)c1)NCC(O)CO (stereo not drawn)" value_measured="95 % of control"
compound=COC(=O)c1ccc(CSc2ccccc2NC(=S)Nc2cccc(SC)c2)o1 value_measured="90 % of control"
compound="O=C1c2ccccc2C(=O)N1OC1CCCCO1 (stereo not drawn)" value_measured="87 % of control"

Notebook: pull reported T/C for BDF1 mice, P388 leukemia ip, median survival T/C, entry `COC(=O)CCC(=O)CCC(C)C`
103 % of control

Notebook: pull reported T/C for BDF1 mice, P388 leukemia ip, median survival T/C, entry `CCOC(=O)c1ccc(C=O)[nH]1`
99 % of control

Notebook: pull reported T/C for BDF1 mice, P388 leukemia ip, median survival T/C, entry `O=c1[nH]cnc2nc(Br)[nH]c12`
93 % of control
